Compiled notes: published IC50 values involving PIK3CA (human).

molecule	IC50
Cn1cc(/C=C2\Oc3cc(O)cc(O)c3C2=O)c2c(-c3cccc(S(C)(=O)=O)c3)ccnc21	14 nM
CCNc1nc2ccc(-c3ccc4c(c3)CN(C(=O)N3CCC(C(C)(F)F)CC3)CCO4)cc2[nH]1	200 to 500 nM
C[C@H](Nc1ncnc2scnc12)c1cc2cccc(-c3cnn(C)c3)c2c(=O)n1-c1cccc(F)c1	1000 to 10000 nM
C[C@H](Nc1ncnc2scnc12)c1cc2cccc(Cl)c2c(C(=O)N2CCC(O)CC2)n1	< 10000 nM

Lab book: IC50 of `Cc1nc(N)ncc1-c1nc(N2CCOCC2)c2nc(N3CCC(C(N)=O)CC3)n(CC3CC3)c2n1` noted as < 10 nM

Lab book: IC50 of `Nc1nc2cc(-c3ccc4ncc(C(=O)N5CCOCC5)n4c3)cnc2o1` noted as < 100 nM

Lab book: IC50 of `O=C(Nc1cccnc1)Nc1nc2cc(-c3nc(N4CCOCC4)c4ccn(CC(F)(F)F)c4n3)ccc2[nH]1` noted as 14 nM

Lab book: IC50 of `Cc1nc(NC(=O)N2CC[C@@H](CN(C)C)[C@H]2C(N)=O)sc1-c1ccnc(C(C)(C)C(F)(F)F)c1` noted as 17 nM

Lab book: IC50 of `Nc1nc2cc(-c3ccc4ncc(C(=O)N5CCn6cncc6C5)n4c3)ccc2o1` noted as < 100 nM

Lab book: IC50 of COCC(C)N(C)[C@H]1CC[C@H](CNc2nc(N3CCOC[C@@H]3C)cc(-n3c(C(F)F)nc4ccccc43)n2)CC1 (stereo partly shown) noted as 2900 nM

Lab book: IC50 of `Nc1nc2cc(-c3ccc4ncn(C5CCC5)c(=O)c4c3)ccc2o1` noted as < 100 nM

Lab book: IC50 of `CS(=O)(=O)N1CCN(Cc2cc3c(N4CCOCC4)nc(-c4cnc(N)cc4C(F)(F)F)nn3c2)CC1` noted as 8.37 nM

====

Compiled notes: published pIC50 values involving UniProt P42336.
pIC50: −log10 of the molar value.

Entry CC(NC(=O)c1c(N)nn2cccnc12)c1cc2cccc(Cl)c2nc1-c1ccccc1 (centres unmarked) : pIC50 on UniProt P42336 = < 5.00

Entry `Cc1cccc2cc(Cn3nc(-c4ccc(O)c(Cl)c4)c4c(N)ncnc43)n(-c3ccccc3F)c(=O)c12` : pIC50 on UniProt P42336 = < 5.00

Entry Cc1nc2ccc(-c3ccc4c(c3)CN(C(=O)N3CCCC(c5ccccc5)C3)CCO4)cc2[nH]1 (centres unmarked) : pIC50 on UniProt P42336 = 6.00 to 6.30

Entry `O=c1cc(Oc2ccccc2)c2cc(-c3cc[nH]n3)ccc2[nH]1` : pIC50 on UniProt P42336 = 5.99

Entry `Cc1ccccc1-n1c(Cn2nc(-c3ccc(Cl)c(O)c3)c3c(N)ncnc32)cc2ccccc2c1=O` : pIC50 on UniProt P42336 = < 5.00

Entry `C[C@H](Nc1ncnc2scnc12)c1cc2cccc(-c3cncc(F)c3)c2c(=O)n1-c1ccccc1` : pIC50 on UniProt P42336 = 5.00 to 6.00

Entry `CC#Cc1cccc2cc([C@H](C)NC(=O)c3c(N)nn4cccnc34)n(-c3ccccc3)c(=O)c12` : pIC50 on UniProt P42336 = 5.00 to 6.00

Entry `CC(C)Cn1c(N2CCN(C=O)CC2)nc2c(N3CCOCC3)nc(-c3cnc(N)nc3)nc21` : pIC50 on UniProt P42336 = 7.70 to 8.00

====

Compiled notes: published IC50 values involving PIK3CA (human).

Entry `O=c1cc(Oc2cccc(-c3cccnc3)c2)c2ccccc2[nH]1` : IC50 on PIK3CA (human) = 3660 nM

Entry `CCCS(=O)(=O)Nc1ccc(F)c(C(=O)c2c[nH]c3ncc(-c4ccc(O)nc4)cc23)c1F` : IC50 on PIK3CA (human) = ≤ 10000 nM

Entry `Cc1nn(C)cc1-c1cc(N2CCOCC2)c2nc(C(=O)N3CCC(N4C[C@@H](C)O[C@@H](C)C4)CC3)[nH]c2n1` : IC50 on PIK3CA (human) = > 1000 nM

Entry `CC(C)Cn1c(N2CCN[C@@H](C)C2)nc2c(N3CCOCC3)nc(-c3cnc(N)nc3)nc21` : IC50 on PIK3CA (human) = 10 to 20 nM

====

Compiled notes: published IC50 values involving PIK3CA (human) (UniProt P42336).

Please review the entries below; each comes with its answer.
CNc1ncc(-c2nc(N3CCOCC3)c3nc(N4CCN(S(C)(=O)=O)[C@H](C)C4)n(CC(F)(F)F)c3n2)cn1 < 10 nM
O=c1cc(Oc2cccc(NCc3ccc(-n4ccnc4)cc3)c2)c2ccccc2[nH]1 > 10000 nM
CC(=O)Nc1cn2cc(-c3ccc4nccc(-c5ccncc5)c4c3)ccc2n1 > 10000 nM
C[C@H](NC(=O)c1c(N)nn2c1NCCC2)c1cc2cccc(Cl)c2c(=O)n1-c1ccccc1 > 10000 nM
COCCN(CC(C)(C)O)[C@H]1CC[C@H](CNc2nc(N3CCOCC3)cc(-n3c(C(F)F)nc4ccccc43)n2)CC1 3500 nM

Entry `C[C@H](Nc1ncnc2cccnc12)c1cc2cccc(C(F)(F)F)c2c(=O)n1-c1ccccc1` : IC50 on PIK3CA (human) (UniProt P42336) = 1000 to 10000 nM

Entry `CN(C)CCC(=O)N[C@H]1CC[C@H](Nc2nc(N3CCOCC3)cc(-n3c(C(F)F)nc4ccccc43)n2)CC1` : IC50 on PIK3CA (human) (UniProt P42336) = 2300 nM

Entry `COc1ncc(-c2ccc3ncc4nc(C)n(C5CCN(S(C)(=O)=O)CC5)c4c3n2)cn1` : IC50 on PIK3CA (human) (UniProt P42336) = < 100 nM

====

Compiled notes: published pIC50 values involving PIK3CA (human) (UniProt P42336).
pIC50: −log10 of the molar value.

Please review the entries below; each comes with its answer.
O=C(CN1CCCCCC1)N[C@H]1CC[C@H](Nc2cc(-n3c(C(F)F)nc4ccccc43)nc(N3CCOCC3)n2)CC1 < 5.52
Cc1nc2cnc3ccc(-c4cnc5[nH]ccc5c4)nc3c2n1C1CCOCC1 > 7.00
Cn1ncc2c(Nc3ccc4c(c3)CNC4=O)nc(Nc3ccc(NC(=O)Nc4cccnc4)cc3)nc21 8.80
CC(C)(O)C(=O)N1CCN(c2cccc(-c3cnc4c(N5CCOCC5)nc(-c5cnc(N)nc5)nc4c3)c2)CC1 > 7.30

Lab book: pIC50 of `O=c1cc(Oc2ccccc2)c2ccc(Br)cc2[nH]1` noted as 5.27

Lab book: pIC50 of `C[C@H](NC(=O)c1c(N)nn2cccnc12)c1cc2cccc(Cl)c2c(=O)n1C1CCCCC1` noted as 5.00 to 6.00

Lab book: pIC50 of `CC(=O)Nc1cccc(Nc2nc(-c3ccccc3)nc3c2cnn3C2CCNCC2)c1` noted as < 5.00

Lab book: pIC50 of `Cc1cccc2cc([C@H](C)Nc3ncnc4[nH]cnc34)n(C3CCC3)c(=O)c12` noted as > 5.00

====

pIC50: −log10 of the molar value.
Compiled notes: published pIC50 values involving PIK3CA (human).

compound	result
NC(=O)c1ccc(Nc2nc(-c3ccc(O)cc3)nc3c2cnn3C2CCN(Cc3ccccc3)CC2)cc1	5.26
CNC(=O)Nc1ccc2c(c1)C(=O)/C(=C/c1cn(C)c3nccc(-c4ccc(C(=O)N5CCOCC5)cc4)c13)O2	6.60
Cc1nc2ccc(-c3ccc4c(c3)CN(c3nc(SCc5ccccc5)nc5c3CCC5)CCO4)cc2[nH]1	≤ 5.70
CCCS(=O)(=O)Nc1cccc(-c2cc(C)c3nc(-c4ccc(N)nc4)nc(N4CCOCC4)c3c2)c1F	6.00 to 7.00
C[C@H](Nc1ncnc2ccccc12)c1cc2cccc(Cl)c2c(CCN2CCOCC2)n1	> 5.00
CNC(=O)Nc1ccc(-c2ccnc3c2c(/C=C2\Oc4cccc(O)c4C2=O)cn3C)cc1	7.43

--- query ---
Entry `C[C@H](Nc1ncnc2[nH]cnc12)c1cc2cccc(Cl)c2c(C(=O)N2CCN(C)CC2)n1` : pIC50 on PIK3CA (human) = > 5.00

====

pIC50: −log10 of the molar value.
Compiled notes: published pIC50 values involving PIK3CA (human) (UniProt P42336).

Please review the entries below; each comes with its answer.
compound	test-target	pIC50
CCn1nc2cnc3ccc(-c4cnc(OC)c(NS(=O)(=O)c5ccc(F)cc5F)c4)cc3n2c1=O	PIK3CA (human) (UniProt P42336)	> 7.00
CN(Cc1ccncc1)C(=O)C1CCN(c2ccnc3c2c(/C=C2\Oc4ccc(NC(=O)Nc5cccnc5)cc4C2=O)cn3C)CC1	PIK3CA (human) (UniProt P42336)	5.91
NC(=O)[C@H]1CCCN1C(=O)C1CN(c2cnc3ccc(-c4ccc5oc(N)nc5c4)cc3n2)C1	PIK3CA (human) (UniProt P42336)	> 7.00

--- query ---
Entry Cc1nc2ccc(-c3ccc4c(c3)CN(C(=O)N3CCC(=O)CC3c3cccc(F)c3)CCO4)cc2[nH]1 (stereo not shown) : pIC50 on PIK3CA (human) (UniProt P42336) = 6.70 to 7.12
